Values compiled from ChEMBL document CHEMBL3875224.

# TARGET OR TEST SYSTEM: Leukotriene A-4 hydrolase (Homo sapiens, UniProt P09960)
# Sequence (P09960 whole entry): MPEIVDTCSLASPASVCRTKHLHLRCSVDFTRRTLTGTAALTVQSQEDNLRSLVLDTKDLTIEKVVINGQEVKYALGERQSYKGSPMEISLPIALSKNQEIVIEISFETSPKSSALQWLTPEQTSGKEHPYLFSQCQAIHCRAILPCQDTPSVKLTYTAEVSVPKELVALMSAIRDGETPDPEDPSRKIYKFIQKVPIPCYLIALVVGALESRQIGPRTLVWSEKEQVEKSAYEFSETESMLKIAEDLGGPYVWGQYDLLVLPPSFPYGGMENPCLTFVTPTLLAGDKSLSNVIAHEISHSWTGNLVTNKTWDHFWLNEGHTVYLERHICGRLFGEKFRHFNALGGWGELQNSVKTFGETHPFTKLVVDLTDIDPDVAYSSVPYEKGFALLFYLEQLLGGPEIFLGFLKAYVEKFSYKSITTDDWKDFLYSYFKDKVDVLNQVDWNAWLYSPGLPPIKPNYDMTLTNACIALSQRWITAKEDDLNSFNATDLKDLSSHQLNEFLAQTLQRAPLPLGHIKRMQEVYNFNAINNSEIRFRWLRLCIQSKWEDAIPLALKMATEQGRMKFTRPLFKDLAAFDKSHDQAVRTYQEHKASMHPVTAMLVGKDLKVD
# METHOD SUMMARY: Inhibition of recombinant C-terminal His-tagged human LTA4H epoxide hydrolase activity expressed in Escherichia coli assessed as reduction in LTB4 production using LTA4 as substrate preincubated for 20 mins followed by substrate addition measured after 30 mins by enzyme immunoassay
ASSAY METRIC: IC50

GET /value?item= CCCC(O)CC(=O)CCc1ccc(O)c(OC)c1 (configuration not stated) &field=IC50 returns > 100 µM

Please fill in: IC50 reported for `CCCCC/C=C/C(=O)CCc1ccc(OC(C)=O)c(OC)c1` = 29.5 µM

Record CCCCCCCC(O)CC(=O)CCc1ccc(O)c(OC)c1 (configuration not stated) , field IC50: > 100 µM

Reported IC50 for `COc1ccc(CCC(C)=O)cc1OC` was > 100 µM

Lab note: CCCCCCCCCC(O)CC(=O)CCc1ccc(O)c(OC)c1 (configuration not stated) gave IC50 of 15.2 µM

Value of IC50 reported for the compound CCCCCC(CC(=O)CCc1ccc(OC)c(OC)c1)OC (configuration not stated) is > 100 µM

For reference, reported IC50 for CC(C)=CCCC(C)[C@H]1CC=C(C)C(O)[C@H]1O (some centres not stated) stands at > 100 µM

###

# TARGET OR TEST SYSTEM: Leukotriene A-4 hydrolase (Homo sapiens)
# Sequence (P09960 whole entry): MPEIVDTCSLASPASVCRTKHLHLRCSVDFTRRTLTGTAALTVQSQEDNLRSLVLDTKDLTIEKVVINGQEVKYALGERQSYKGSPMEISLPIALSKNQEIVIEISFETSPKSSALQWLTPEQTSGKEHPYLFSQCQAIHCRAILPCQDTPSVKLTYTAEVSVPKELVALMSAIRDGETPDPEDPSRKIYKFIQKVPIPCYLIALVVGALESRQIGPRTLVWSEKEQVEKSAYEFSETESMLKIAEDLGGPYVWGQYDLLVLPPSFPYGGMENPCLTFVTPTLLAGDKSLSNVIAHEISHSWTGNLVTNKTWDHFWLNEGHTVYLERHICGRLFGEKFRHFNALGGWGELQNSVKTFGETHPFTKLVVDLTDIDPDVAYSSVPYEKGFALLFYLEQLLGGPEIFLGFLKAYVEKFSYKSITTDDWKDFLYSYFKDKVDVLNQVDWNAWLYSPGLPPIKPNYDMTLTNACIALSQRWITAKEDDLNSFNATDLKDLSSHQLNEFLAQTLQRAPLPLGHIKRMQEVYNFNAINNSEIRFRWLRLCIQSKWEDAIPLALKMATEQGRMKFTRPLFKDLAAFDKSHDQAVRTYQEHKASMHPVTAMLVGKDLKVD
# METHOD SUMMARY: Inhibition of recombinant C-terminal His-tagged human LTA4H aminopeptidase activity expressed in Escherichia coli using L-alanine-4-nitro-anilide hydrochloride as substrate preincubated for 20 mins followed by substrate addition
Please go through the items and note down their IC50.
Give just the number in µM; leave the unit off.

// returns IC50 for `CCCCC/C=C/C(=O)CCc1ccc(OC(C)=O)c(OC)c1` with Leukotriene A-4 hydrolase (Homo sapiens); value = 9.31

Leukotriene A-4 hydrolase (Homo sapiens) data for CCCCCC(CC(=O)CCc1ccc(OC(C)=O)c(OC)c1)OC(C)=O (stereo not drawn) ; its IC50: 22.1

The molecule CCCCCCCCCC(O)CC(=O)CCc1ccc(O)c(OC)c1 (stereo not drawn) on Leukotriene A-4 hydrolase (Homo sapiens): IC50 was 21.6

Reported Leukotriene A-4 hydrolase (Homo sapiens) IC50 for item C=CCOc1ccc(CCC(=O)CC(O)CCCCC)cc1OC (stereo not drawn) was 56.3

Summary: `Nc1nc(-c2ccc(Cc3ccccc3)cc2)cs1` , Leukotriene A-4 hydrolase (Homo sapiens), IC50 = 7.61

Record CCCCCC(O)CC(=O)CCc1ccc(O)c(OC)c1 (stereo not drawn) ; system Leukotriene A-4 hydrolase (Homo sapiens); IC50 = 56.1

GET /values?item= CCCCC/C=C/CCC(O)CC(=O)CCc1ccc(O)c(OC)c1 (stereo not drawn) &system= Leukotriene A-4 hydrolase (Homo sapiens) returns IC50: 45.6

The value of IC50 recorded for CCCCC/C=C/C(=O)CCc1ccc(O)c(OC)c1 [SHOGAOL] when tested on Leukotriene A-4 hydrolase (Homo sapiens) reads 12.5

Given the molecule CCCCCC(O)CC(=O)CCc1ccc(OCC=C(C)C)c(OC)c1 (stereo not drawn) and test system Leukotriene A-4 hydrolase (Homo sapiens), the measured IC50 is 3.01

The reported Leukotriene A-4 hydrolase (Homo sapiens) IC50 of `CCCCC/C=C/C(=O)CCc1ccc(OC)c(OC)c1` is 4.92

###

# METHOD SUMMARY: Cytotoxicity against human TIG1 cells assessed as reduction in cell viability after 48 hrs by WST1 assay
# Assay type: toxicity, cell-based
// boundary case: IC50 at 48 h equal to 80 µM maps to Condition not met; strictly smaller maps to Condition met

Req: API: query returns whether the compound falls strictly under 80 µM in IC50 at 48 h. Query: CCCCCC(O)CC(=O)CCc1cc(OC)c(O)c(-c2cc(CCC(=O)CC(O)CCCCC)cc(OC)c2O)c1 (stereo not drawn)
Resp: Condition met

Req: Here's an entry: `CCCCC/C=C/C(=O)CCc1ccc(OC(C)=O)c(OC)c1` . Is its IC50 at 48 h below 80 µM?
Resp: Condition not met

Req: Criterion: IC50 at 48 h strictly below 80 µM. Is it met by `COc1ccc(CCC(C)=O)cc1OC` ?
Resp: Condition not met

Req: In plain terms, does CCCCCC(CC(=O)CCc1ccc(OC)c(OC)c1)OC (stereo not drawn) come in under 80 µM for IC50 at 48 h?
Resp: Condition not met

Req: Could you please tell me whether IC50 at 48 h recorded for CCCCC/C=C/CCC(O)CC(=O)CCc1ccc(O)c(OC)c1 (stereo not drawn) is less than 80 µM?
Resp: Condition not met

Req: Just wondering, is IC50 at 48 h of `Nc1nc(-c2ccc(Cc3ccccc3)cc2)cs1` below 80 µM?
Resp: Condition not met

Req: Is 80 µM strictly greater than the compound's reported IC50 at 48 h? compound: CCCCCCCC(O)CC(=O)CCc1ccc(O)c(OC)c1 (stereo not drawn)
Resp: Condition met

Req: Lab note: confirm whether the reported IC50 at 48 h for this compound is below 80 µM, equality not counting. compound: CCCCCC(O)CC(=O)CCc1ccc(O)c(OC)c1 (stereo not drawn)
Resp: Condition met

Req: API: query returns whether the compound falls strictly under 80 µM in IC50 at 48 h. Query: CCCCCC(O)CC(=O)CCc1ccc(OC)c(OC)c1 (stereo not drawn)
Resp: Condition not met

Req: I wonder whether CCCCCC(CC(=O)CCc1ccc(OC(C)=O)c(OC)c1)OC(C)=O (stereo not drawn) has IC50 at 48 h below 80 µM. Can you tell?
Resp: Condition not met

Req: Find out if reported IC50 at 48 h for CCCC(O)CC(=O)CCc1ccc(O)c(OC)c1 (stereo not drawn) is less than 80 µM
Resp: Condition not met

Req: Does CCCCCC(CC(=O)CCc1ccc(O)c(OC)c1)OC (stereo not drawn) have IC50 at 48 h strictly under 80 µM?
Resp: Condition not met

###

# METHOD SUMMARY: Cytotoxicity against human TIG1 cells assessed as reduction in cell viability after 48 hrs by WST1 assay
# Format: toxicity, cell-based
ASSAY METRIC: IC50 at 48 h (µM)
Please state the figure in µM; there is no need to write the unit.

`CCCCC/C=C/C(=O)CCc1ccc(OC)c(OC)c1` has a reported IC50 at 48 h of 80.6

Entry C=CCOc1ccc(CCC(=O)CC(O)CCCCC)cc1OC (stereo unspecified) — recorded IC50 at 48 h = 64.6

// sample CCCCCC(O)CC(=O)CCc1ccc(OCC=C(C)C)c(OC)c1 (stereo unspecified) , its IC50 at 48 h was 83.2
